- Tested on: H9c2;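 note: cell death induced by hydrogen peroxide oxidative stress; compound pretreatment for 60 min then peroxide exposure for 2 h; potency is for protecting the cells against peroxide damage rather than for killing them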;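 note: confirmatory concentration-response retest of ultra-high-throughput screening hits for modulation of myocardial damage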
- measurementDescription: cells
- Type: functional, cell-based
- conditionDetails: Rattus norvegicus, H9c2, Myocardium
Activity calls are given as the source filed them.
Hello, when you answer, please use one of the following outcomes: 1.0 = active, 0.0 = inactive

Enquiry: Could you please tell me the result logged for COc1ccc2c(c1OC)c(=O)n1c3ccc(OC(C)C(=O)NCCN4CCOCC4)cc3c3ccnc2c31 (stereo not given) in this assay?
Return: 1.0

Enquiry: Could you please tell me the result logged for Cc1csc(SCc2nc(O)c3c4c(sc3n2)CCC4)n1 in this assay?
Return: 1.0

Enquiry: Could you please tell me the result logged for CCCCCCn1cnc2c(c1=O)c1nc3ccccc3nc1n2/N=C/c1ccco1 in this assay?
Return: 1.0

Enquiry: Could you please tell me the result logged for COCCCn1c(C)nc2c(c1=O)c1nc3ccccc3nc1n2CCc1ccccc1 in this assay?
Return: 1.0

Enquiry: Could you please tell me the result logged for O=C(NNC(=O)c1cc2cc(Br)ccc2oc1=O)c1ccc(O)cc1O in this assay?
Return: 0.0

###

- measurementDescription: Luminescence Cell-Based Dose Confirmation HTS to Identify Inhibitors of Platelet Dense Granule Release. [Related pubchem assays: 1663 (Primary HTS), 1678 (Summary of Project)]
- Type: functional
Calls of active or inactive are those of the source.
endpointLabel: EC50

What the record says about COc1ccc2c(c1)N(C(=O)CSc1n[nH]c(C)n1)C(C)(C)C=C2C : EC50 is > 112 µM (not active)

What the record says about COc1ccc(-c2nn(-c3ccccc3)cc2C(=O)O)cc1OC : EC50 is > 112 µM (not active)

What the record says about Cc1ccc(NC(=O)N2CCC(c3ccccc3)C2)cc1C (stereo not given) : EC50 is > 112 µM (not active)

What the record says about CCCOC(=O)c1ccc(NC(=O)c2ccoc2C)cc1 : EC50 is 5.2 µM (active)

What the record says about COc1ccccc1C(=O)Nc1cnc(O)nc1O : EC50 is 0.25 µM (active)

###

- assaySystem: Nucleotide-binding oligomerization domain-containing protein 2 (Homo sapiens, UniProt Q9HC29)
- Sequence (Q9HC29 whole entry, the tested form may be a part): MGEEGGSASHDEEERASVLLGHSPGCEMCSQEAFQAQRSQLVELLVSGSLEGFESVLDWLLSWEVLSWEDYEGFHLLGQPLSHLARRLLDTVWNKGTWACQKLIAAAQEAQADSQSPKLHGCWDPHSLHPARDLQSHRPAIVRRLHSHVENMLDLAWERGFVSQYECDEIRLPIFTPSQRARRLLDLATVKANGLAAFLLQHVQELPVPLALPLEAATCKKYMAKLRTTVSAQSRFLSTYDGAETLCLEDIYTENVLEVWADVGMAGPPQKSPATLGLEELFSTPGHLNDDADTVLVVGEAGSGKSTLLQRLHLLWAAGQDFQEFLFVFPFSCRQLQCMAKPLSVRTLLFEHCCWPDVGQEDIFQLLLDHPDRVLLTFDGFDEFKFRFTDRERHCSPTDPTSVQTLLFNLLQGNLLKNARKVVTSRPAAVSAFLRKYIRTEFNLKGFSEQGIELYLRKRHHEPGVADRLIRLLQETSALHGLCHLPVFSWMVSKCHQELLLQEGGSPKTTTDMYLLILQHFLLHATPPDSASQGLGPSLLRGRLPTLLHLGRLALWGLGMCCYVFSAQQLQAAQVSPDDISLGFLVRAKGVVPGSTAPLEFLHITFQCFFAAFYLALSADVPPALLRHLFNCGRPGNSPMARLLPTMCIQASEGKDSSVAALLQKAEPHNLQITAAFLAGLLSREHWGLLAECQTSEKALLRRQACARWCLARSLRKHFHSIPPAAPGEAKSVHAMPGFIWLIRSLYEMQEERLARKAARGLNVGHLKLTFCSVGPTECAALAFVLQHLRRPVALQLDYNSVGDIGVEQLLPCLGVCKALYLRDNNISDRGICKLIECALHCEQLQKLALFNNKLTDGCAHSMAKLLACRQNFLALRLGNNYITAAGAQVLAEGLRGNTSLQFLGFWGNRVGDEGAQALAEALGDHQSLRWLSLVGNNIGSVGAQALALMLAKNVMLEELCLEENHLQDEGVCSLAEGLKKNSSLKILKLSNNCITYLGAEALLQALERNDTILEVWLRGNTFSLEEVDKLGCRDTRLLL
- measurementDescription: NOD2 signaling inhibitors, cell-based, luminescence, uHTS, HEK293 (AID 1566)
- Assay type: functional
Calls of active or inactive are those of the source.
endpointLabel: EC50

What the record says about CC1CCc2sc3ncnc(N4CCOCC4)c3c2C1 (stereo not given) : EC50 is 8.76 µM (active)

What the record says about Cc1cc(C)cc(OCC(=O)Nc2nc3ccc([N+](=O)[O-])cc3s2)c1 : EC50 is 7.65 µM (active)

What the record says about O=C1C=C(N2CCOCC2)c2ccccc2C1=O : EC50 is 13.3 µM (active)

What the record says about Nc1ccc(Oc2cccc(Oc3ccc(N)cc3)c2)cc1 : EC50 is 1.85 µM (active)

What the record says about COc1ccc(C)cc1NC(=O)CSc1ccc(-c2sc(C)nc2C)nn1 : EC50 is 4.63 µM (active)

###

For each of the compounds below, state its IC50.
- measurementDescription: cytotoxicity in HEK-293T cells, dose response, cytotoxicity control for TCR NF-kB inhibitor project, luminescence, T-cell screen hits (AID 489026);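 note: cells exposed to compound about 14 hours before the viability readout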
- Type: functional, cell-based
Active and inactive are the calls of the source.

What the record says about CC(=O)O[C@@]12CO[C@@H]1C[C@@H](O)[C@@]1(C)C(=O)[C@H](O)C3=C(C)[C@@H](OC(=O)[C@H](O)[C@@H](NC(=O)c4ccccc4)c4ccccc4)C[C@@](O)([C@@H](OC(=O)c4ccccc4)C12)C3(C)C (some centres undefined) : IC50 is > 80 µM (inactive)

What the record says about COc1ccc(CS(=O)(=O)/C(Cl)=C(/Cl)C(=O)Nc2ccc(OC)nc2)cc1 : IC50 is 27.9 µM (inactive)

What the record says about O=C(N/N=C/c1c(O)ccc2ccccc12)c1cccc(C(F)(F)F)c1 : IC50 is > 80 µM (inactive)

What the record says about COc1ccccc1NC(=O)Cn1nnc(C(=O)NCc2cccs2)c1N : IC50 is > 80 µM (inactive)
